Assay: Dual reporter qHTS for agonist of Pregnane X Receptor (hPXR) against the NCATS DSHEA and TCM libraries: Fluorescence readout (AID 1920058)
Conditions: PXR dual reporter cells; series mostly up to 40 µM
Description: Assay Development and Screening Technology Laboratory (ADST) National Center for Advancing Translational Sciences (NCATS), Rockville, MD National Institute of Health (NIH), Bethesda, Maryland Dietary Supplements and Natural Products have minor oversight of their safety and efficacy. […] Overall, we highlight four significant bioactivity profiles (measured by p-values) as examples of this prediction. […] 8; Read; Fluorescence; ViewLux plate reader. […] 11; Read; Luminescence; ViewLux plate reader. […]
Calls of active or inactive are those of the source. The call rests on the fitted dose curve; in most records, active means well fitted curve in the direction sought with a large enough effect; inconclusive means small, poorly fitted or top-dose-only effect, or another doubt; inactive means no such curve, though single readings can be large or run the other way.
measuredParameter: activation

>>> readoutvalue("Cc1ccc(O)c(O)c1")
"inactive"
>>> readoutvalue("O=C(OC[C@H]1O[C@@H](OC(=O)c2cc(O)c(O)c(O)c2)[C@H](OC(=O)c2cc(O)c(O)c(O)c2)[C@@H](OC(=O)c2cc(O)c(O)c(O)c2)[C@@H]1O)c1cc(O)c(O)c(O)c1")
"inactive"
>>> readoutvalue("CC(C)(O)[C@@H]1CC[C@](C)([C@@H]2[C@H](O)C[C@]3(C)C4C[C@@H](O[C@H]5O[C@@H](CO)[C@H](O)[C@@H](O)[C@@H]5O)C5C(C)(C)[C@H](O[C@H]6OC[C@H](O)[C@@H](O)[C@@H]6O)CC[C@]56CC46CC[C@@]23C)O1 (stereo partly drawn)")
"inactive"
